Experiment: Stability in cynomolgus monkey liver microsomes assessed as parent compound remaining at 1 uM measured after 65 mins by LC/MS-MS analysis
Type: ADME, Macaca fascicularis, Microsome
Conditions: read-out: Stability
measuredProperty: remaining at 65 min, 1 µM (%)
Reply with just the number (in %).

>>> value("Fc1cc2nc(-c3cncnc3C(F)F)n(C3CC3)c2cc1F")
106
>>> value("N#Cc1ccc2nc(-c3cncnc3C(F)F)n(C3CC3)c2c1")
84

*Q* Return reported remaining at 65 min, 1 µM; argument: N#Cc1ccc2nc(-c3cncnc3C(F)(F)F)n(C3CC3)c2c1
*A* 62
